Measured values drawn from patent US20250002565A1 for this set.

Target: T1, 15-mer peptide LGIWGCSGKLICTTT (SEQ ID NO:1) (HIV, not fully specified; cysteine pairing not given here)
T1 construct: also called U1731DB060-1; U173DB060-1
T1 peptide: LGIWGCSGKLICTTT
Assay: indirect ELISA; 15-mer peptide coated 1 ug/ml in DTT; antibody at 333 ng/ml
No end group written: not given here.
READOUT_LABEL: ELISA OD (OD)
Give the number; OD is assumed, so skip it.

Worked set:
HIV-binding peptide #1 (antibody, human IgG1, kappa, V domains shown, Recombinant, fully human immunoglobulin; also called U1205DB020-1) VH: QVQLQESGGGVVQPGRSLRLSCAASGFTFSSYAIHWVRQAPGKGLEWVAVISYDGSNRYYADSVKGRFTISRDNSKNTLYLQMNSLRPEDTAVYYCARDRFSAVASTPTYHNYFYMDVWGKGTTVTVSS VL: DIQMTQSPSSLSASVGDRVTITCQASQDVNNYLAWYQQKPGQAPRLLIYDASNLETGVPSRFSGSGSGTDFTLTISSLQPEDLATYYCQQYDNTPYTFGQGTKLEIKR | 0.096
HIV-binding peptide #8 (antibody, human IgG1, kappa, V domains shown, Recombinant, fully human immunoglobulin; also called U1205DB020-8) VH: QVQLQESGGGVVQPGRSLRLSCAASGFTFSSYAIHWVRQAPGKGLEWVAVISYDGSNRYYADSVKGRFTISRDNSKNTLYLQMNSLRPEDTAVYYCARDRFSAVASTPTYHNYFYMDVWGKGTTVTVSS VL: DIQMTQSPSSLSASVGDRVTITCQASQDISNYLAWYQQKPGQAPRLLIYDASNLETGVPSRFSGSGSGTDFTLTISSLQPEDLATYYCQQYDNLPYTFGQGTKLEIKR | 0.073
HIV-binding peptide #11Q (antibody, V domains shown, Heavy chain only with variant CH1/CH2 (hinge cysteines replaced by serines)) VH: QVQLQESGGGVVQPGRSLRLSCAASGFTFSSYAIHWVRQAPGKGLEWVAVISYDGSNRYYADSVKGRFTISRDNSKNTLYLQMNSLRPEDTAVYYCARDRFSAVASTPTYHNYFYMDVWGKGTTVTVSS | 0.241
HIV-binding peptide #5 (antibody, human IgG1, kappa, V domains shown, Recombinant, fully human immunoglobulin; also called U1205DB020-5) VH: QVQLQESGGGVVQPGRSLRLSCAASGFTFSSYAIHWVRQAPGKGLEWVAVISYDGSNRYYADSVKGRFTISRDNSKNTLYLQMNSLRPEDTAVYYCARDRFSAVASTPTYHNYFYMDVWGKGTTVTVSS VL: DIQMTQSPSSLSASVGDRVTITCQASQDVSNYLAWYQQKPGQAPRLLIYDASNLETGVPSRFSGSGSGTDFTLTISSLQPEDLATYYCQQYDNTPYTFGQGTKLEIKR | 0.086

The record that follows has no ELISA OD shown yet.
binder HIV-binding peptide #7 (antibody, human IgG1, kappa, V domains shown, also called U1205DB020-7) VH: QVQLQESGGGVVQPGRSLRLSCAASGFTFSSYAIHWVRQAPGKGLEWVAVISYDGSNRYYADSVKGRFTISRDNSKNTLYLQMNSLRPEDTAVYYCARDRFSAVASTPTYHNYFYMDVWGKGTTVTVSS VL: DIQMTQSPSSLSASVGDRVTITCQASQDVSNYLAWYQQKPGQAPRLLIYDASNLETGVPSRFSGSGSGTDFTLTISSLQPEDLATYYCQQYDNLPYTFGQGTKLEIKR , ELISA OD observed: 0.092
